Consider the following compounds; for each one, report its LDH.
- Organism: Rattus norvegicus
- assay.notes: Open TG-GATES - Regimen: Single
- Type: toxicity, organism-based, Sprague-Dawley
- Parameters: regimen Single, gender Male, age 6 weeks
- condition.set: in vivo, po, 10 mg/kg, 24 h, tissue Plasma, route gavage, dose level Low
Give bare numbers, in IU/L.

>>> df
           compound_structure  reported
0  CN(C)CCN(Cc1cccs1)c1ccccn1     223.2

Each compound below has a recorded value; state its LDH.
1. CC1=C(/C=C/C(C)=C/C=C/C(C)=C/CO)C(C)(C)CCC1
2. CN(C)CCCN1c2ccccc2CCc2ccc(Cl)cc21
3. CN(C)CCCN1c2ccccc2CCc2ccccc21

[out]
1: 318.8; 2: 88; 3: 73.2
